# METHOD_DESCRIPTION: activity coefficient (dimensionless); of the first substance listed, at infinite dilution; xn = mol fraction of the nth substance listed
# EXPERIMENTAL_CONTEXT: 323.15 K; Liquid; Chromatography; x1 = 0
Reported activity coefficient by item:

{"columns": ["COMPOUND", "activity coefficient"],
 "data": [
  ["C#CCCCC [1-hexyne] + CCCOC[n+]1ccn(Cc2ccccc2)c1.F[B-](F)(F)F", 5.61],
  ["CC1CCCCC1 [methylcyclohexane] + CCCOC[n+]1ccn(Cc2ccccc2)c1.N#C[N-]C#N", 21.3],
  ["Cc1cccc(C)c1 [1,3-dimethylbenzene] + CCCOC[n+]1ccn(C)c1.F[B-](F)(F)F", 11],
  ["C1CCCCCC1 [cycloheptane] + CCCCCCCCn1cc[n+](COCCCOC[n+]2ccn(CCCCCCCC)c2C)c1C.O=S(=O)([N-]S(=O)(=O)C(F)(F)F)C(F)(F)F.O=S(=O)([N-]S(=O)(=O)C(F)(F)F)C(F)(F)F", 5.84],
  ["CCCCCCCCCCCC [dodecane] + N#C[N-]C#N.N#C[N-]C#N.c1ccc(Cn2cc[n+](COCCCOC[n+]3ccn(Cc4ccccc4)c3)c2)cc1", 631],
  ["CCc1ccccc1 [ethylbenzene] + N#C[N-]C#N.N#C[N-]C#N.c1ccc(Cn2cc[n+](COCCCOC[n+]3ccn(Cc4ccccc4)c3)c2)cc1", 8.33]
]}

* * *

# METHOD_DESCRIPTION: activity coefficient (dimensionless); of the first substance listed, at infinite dilution; xn = mol fraction of the nth substance listed
# EXPERIMENTAL_CONTEXT: 333.15 K; Liquid; Chromatography; x1 = 0
REPORTED_METRIC: activity coefficient

{"columns": ["MOLECULE", "QUANTITATIVE_RESULT"],
 "data": [
  ["CC#N [acetonitrile] + CCCOC[n+]1ccn(Cc2ccccc2)c1.F[B-](F)(F)F", 0.63],
  ["C1COCCO1 [1,4-dioxane] + CN(C)c1cc[n+](COCCCOC[n+]2ccc(N(C)C)cc2)cc1.O=S(=O)([N-]S(=O)(=O)C(F)(F)F)C(F)(F)F.O=S(=O)([N-]S(=O)(=O)C(F)(F)F)C(F)(F)F", 0.45],
  ["CCC(=O)CC [pentan-3-one] + CCCOC[n+]1ccc(N(C)C)cc1.O=S(=O)([N-]S(=O)(=O)C(F)(F)F)C(F)(F)F", 0.75]
]}

* * *

# METHOD_DESCRIPTION: activity coefficient (dimensionless); of the first substance listed, at infinite dilution; xn = mol fraction of the nth substance listed
# EXPERIMENTAL_CONTEXT: 323.15 K; Liquid; Chromatography; x1 = 0
Simple rule here: activity coefficient less than 5 is class 1, otherwise class 0.

{"columns": ["COMPOUND", "CATEGORY_LABEL"],
 "data": [
  ["c1ccccc1 [benzene] + CCCCCCCCn1cc[n+](COCCCOC[n+]2ccn(CCCCCCCC)c2C)c1C.N#C[N-]C#N.N#C[N-]C#N", "class 1"],
  ["C1COCCO1 [1,4-dioxane] + N#C[N-]C#N.N#C[N-]C#N.c1ccc(Cn2cc[n+](COCCCOC[n+]3ccn(Cc4ccccc4)c3)c2)cc1", "class 1"],
  ["C1CCCCCC1 [cycloheptane] + Cn1cc[n+](COCCCOC[n+]2ccn(C)c2)c1.O=S(=O)([N-]S(=O)(=O)C(F)(F)F)C(F)(F)F.O=S(=O)([N-]S(=O)(=O)C(F)(F)F)C(F)(F)F", "class 0"],
  ["CCC(=O)CC [pentan-3-one] + CCCOC[n+]1ccn(Cc2ccccc2)c1.F[B-](F)(F)F", "class 1"],
  ["CCO [ethanol] + CCCCCCCCn1cc[n+](COCCCOC[n+]2ccn(CCCCCCCC)c2C)c1C.O=S(=O)([N-]S(=O)(=O)C(F)(F)F)C(F)(F)F.O=S(=O)([N-]S(=O)(=O)C(F)(F)F)C(F)(F)F", "class 1"],
  ["CC1CCCC1 [methylcyclopentane] + CCCOC[n+]1ccn(Cc2ccccc2)c1.N#C[N-]C#N", "class 0"],
  ["CCC(=O)CC [pentan-3-one] + CCCCCCCCn1cc[n+](COCCCOC[n+]2ccn(CCCCCCCC)c2C)c1C.O=S(=O)([N-]S(=O)(=O)C(F)(F)F)C(F)(F)F.O=S(=O)([N-]S(=O)(=O)C(F)(F)F)C(F)(F)F", "class 1"],
  ["CCCCCCCCCCCCC [tridecane] + CCCOC[n+]1ccc(N(C)C)cc1.O=S(=O)([N-]S(=O)(=O)C(F)(F)F)C(F)(F)F", "class 0"],
  ["Cc1ccccc1 [toluene] + CCCOC[n+]1ccn(Cc2ccccc2)c1.F[B-](F)(F)F", "class 1"],
  ["CCCCCCC [heptane] + CCCOC[n+]1ccn(Cc2ccccc2)c1.O=S(=O)([N-]S(=O)(=O)C(F)(F)F)C(F)(F)F", "class 0"],
  ["C#CCCCCC [1-heptyne] + CN(C)c1cc[n+](COCCCOC[n+]2ccc(N(C)C)cc2)cc1.O=S(=O)([N-]S(=O)(=O)C(F)(F)F)C(F)(F)F.O=S(=O)([N-]S(=O)(=O)C(F)(F)F)C(F)(F)F", "class 1"],
  ["Cc1ccccc1C [1,2-dimethylbenzene] + Cn1cc[n+](COCCCOC[n+]2ccn(C)c2)c1.O=S(=O)([N-]S(=O)(=O)C(F)(F)F)C(F)(F)F.O=S(=O)([N-]S(=O)(=O)C(F)(F)F)C(F)(F)F", "class 1"],
  ["CCCCCCCCCC [decane] + Cn1cc[n+](COCCCOC[n+]2ccn(C)c2)c1.O=S(=O)([N-]S(=O)(=O)C(F)(F)F)C(F)(F)F.O=S(=O)([N-]S(=O)(=O)C(F)(F)F)C(F)(F)F", "class 0"],
  ["CCCCCCC [heptane] + CN(C)c1cc[n+](COCCCOC[n+]2ccc(N(C)C)cc2)cc1.O=S(=O)([N-]S(=O)(=O)C(F)(F)F)C(F)(F)F.O=S(=O)([N-]S(=O)(=O)C(F)(F)F)C(F)(F)F", "class 0"],
  ["CC(C)CO [2-methyl-1-propanol] + CCCOC[n+]1ccn(Cc2ccccc2)c1.N#C[N-]C#N", "class 1"],
  ["C#CCCCC [1-hexyne] + CCCOC[n+]1ccc(N(C)C)cc1.O=S(=O)([N-]S(=O)(=O)C(F)(F)F)C(F)(F)F", "class 1"],
  ["ClC(Cl)(Cl)Cl [tetrachloromethane] + CCCCCCCCn1cc[n+](COCCCOC[n+]2ccn(CCCCCCCC)c2C)c1C.N#C[N-]C#N.N#C[N-]C#N", "class 1"],
  ["CCOCC [diethyl ether] + CCCOC[n+]1ccn(C)c1.F[B-](F)(F)F", "class 0"],
  ["c1ccsc1 [thiophene] + CCCOC[n+]1ccn(Cc2ccccc2)c1.O=S(=O)([N-]S(=O)(=O)C(F)(F)F)C(F)(F)F", "class 1"],
  ["c1ccncc1 [pyridine] + N#C[N-]C#N.N#C[N-]C#N.c1ccc(Cn2cc[n+](COCCCOC[n+]3ccn(Cc4ccccc4)c3)c2)cc1", "class 1"],
  ["CCCCCCCCCC [decane] + CCCCCCCCn1cc[n+](COCCC)c1C.N#C[N-]C#N", "class 0"],
  ["CCCCCCCCCC [decane] + CN(C)c1cc[n+](COCCCOC[n+]2ccc(N(C)C)cc2)cc1.O=S(=O)([N-]S(=O)(=O)C(F)(F)F)C(F)(F)F.O=S(=O)([N-]S(=O)(=O)C(F)(F)F)C(F)(F)F", "class 0"],
  ["CCCCCCC [heptane] + CCCCCCCCn1cc[n+](COCCC)c1C.O=S(=O)([N-]S(=O)(=O)C(F)(F)F)C(F)(F)F", "class 1"]
]}

These entries and their values trace back to the NIST ThermoML archive (doi:10.1016/j.fluid.2014.11.020).
